Hey, just so you know, these numbers are from patent US5281616A.

Molecular target: HIV-1 reverse transcriptase (Human immunodeficiency virus type 1 group M subtype B, UniProt P04585)
Assay: Inhibition of purified HIV-1 reverse transcriptase (cell free)
Type: biochemical
Endpoint Name: EC50 (µM)
# value in µM; strip the unit string

Use the examples below as a reference point.
C[n+]1cccc(-c2c3nc(c(-c4ccccc4)c4ccc([nH]4)c(-c4ccccc4)c4nc(c(-c5ccc[n+](C)c5)c5ccc2[nH]5)C=C4)C=C3)c1: 41.6
C[n+]1ccc(-c2c3nc(c(-c4ccccc4)c4ccc([nH]4)c(-c4ccccc4)c4nc(c(-c5cc[n+](C)cc5)c5ccc2[nH]5)C=C4)C=C3)cc1: 26.9

# input compound: O=C(O)c1ccc(-c2c3nc(c(-c4ccc(C(=O)O)cc4)c4ccc([nH]4)c(-c4ccc(C(=O)O)cc4)c4nc(c(-c5ccc(C(=O)O)cc5)c5ccc2[nH]5)C=C4)C=C3)cc1 ; wanted: its EC50
1.1

====

Test system: HIV-1 (strain LAV-1)
Experiment: Inhibition of HIV replication in PBM cells (supernatant RT activity)
Format: cell-based
Settings: human PBM cells, RT activity in supernatant five days after infection; read-out: EC50, inhibition of HIV replication in PBM cells
In plain terms, low EC50, meaning strictly below 50 µM, gives 1, and everything else gives 0.

Use the examples below as a reference point.
C[n+]1ccc(-c2c3nc(c(-c4cc[n+](C)cc4)c4ccc([nH]4)c(-c4cc[n+](C)cc4)c4nc(c(-c5cc[n+](C)cc5)c5ccc2[nH]5)C=C4)C=C3)cc1.Cl.[Fe+3]: 0
[Co+2].c1ccc2c(c1)-c1nc-2nc2[n-]c(nc3nc(nc4[n-]c(n1)c1ccccc41)-c1ccccc1-3)c1ccccc21: 0
[Cu+2].c1ccc2c(c1)-c1nc-2nc2[n-]c(nc3nc(nc4[n-]c(n1)c1ccccc41)-c1ccccc1-3)c1ccccc21: 1
Oc1ccc(-c2c3nc(c(-c4ccc(O)cc4)c4ccc([nH]4)c(-c4ccc(O)cc4)c4nc(c(-c5ccc(O)cc5)c5ccc2[nH]5)C=C4)C=C3)cc1 [TPP(4-OH)4, Tetra-(4-hydroxyphenyl)-porphyrin]: 1

Let's switch to this compound now.
Problem: For the compound C[n+]1cccc(-c2c3nc(c(-c4ccccc4)c4ccc([nH]4)c(-c4ccc[n+](C)c4)c4nc(c(-c5ccccc5)c5ccc2[nH]5)C=C4)C=C3)c1 , is EC50 under 50 µM?
1

====

Test system: herpes simplex virus type 1
Test: Plaque assay in Vero cells, HSV type 1
Assay type: cell-based, HSV-1
Details: Human alphaherpesvirus 1, Vero, read-out: EC50 HSV type 1 Dark
Structures can show the parent of a compound that is named as a salt.
Endpoint Name: EC50 (nM)
Numeric only. Scale: nM

Item C[n+]1ccc(-c2c3nc(c(-c4cc[n+](C)cc4)c4ccc([nH]4)c(-c4cc[n+](C)cc4)c4nc(c(-c5cc[n+](C)cc5)c5ccc2[nH]5)C=C4)C=C3)cc1 [TMPyP, tosylate salt] with herpes simplex virus type 1 - EC50?
40

====

Tested on: HIV-1 (strain LAV-1)
Assay: Inhibition of HIV replication in PBM cells (supernatant RT activity)
Assay type: cell-based
Conditions: read-out: EC50, inhibition of HIV replication in PBM cells; human PBM cells, RT activity in supernatant five days after infection
Endpoint Name: EC50

What value of EC50 has been reported for the following compound? C1=Cc2nc1c(-c1ccccc1)c1ccc([nH]1)c(-c1ccccc1)c1nc(c(-c3ccccc3)c3ccc([nH]3)c2-c2ccccc2)C=C1 [TPP, Meso-tetraphenylporphine]
> 10 µM
